Attribution: the supplement of paper PMC7125110

B1: glmS ribozyme (parent)
chain: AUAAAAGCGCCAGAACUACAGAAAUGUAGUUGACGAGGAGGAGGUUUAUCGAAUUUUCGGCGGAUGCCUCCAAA

Variants of: B1
Assay protocol: self-cleavage kobs at 10000 uM GlcN6P; higher = faster cleavage; RNA array
Condition context: with glucosamine-6-phosphate
This sample holds only a part of the variants without activity.
Quantity measured: self-cleavage kobs at 10000 uM GlcN6P

Consider the following illustrative entries.
Mutation string | Quantity measured | Reported value
A12G U45G C50A U57G | self-cleavage kobs at 10000 uM GlcN6P | < 1e-05 s⁻¹
A33U A42U U65G | self-cleavage kobs at 10000 uM GlcN6P | < 1e-05 s⁻¹
A6G U31C C34G | self-cleavage kobs at 10000 uM GlcN6P | < 1e-05 s⁻¹
A33G A36C | self-cleavage kobs at 10000 uM GlcN6P | < 1e-05 s⁻¹
C11A G41U G43U G44A G51C G63A | self-cleavage kobs at 10000 uM GlcN6P | < 1e-05 s⁻¹
A15C G35A | self-cleavage kobs at 10000 uM GlcN6P | < 1e-05 s⁻¹
A36G G38C U55A | self-cleavage kobs at 10000 uM GlcN6P | < 1e-05 s⁻¹
A12C C61U G66U | self-cleavage kobs at 10000 uM GlcN6P | < 1e-05 s⁻¹

Quick request: self-cleavage kobs at 10000 uM GlcN6P for each listed item, please.
1. G32C G40A C50U C68A
2. A48G G66C

Result:
1. < 1e-05 s⁻¹
2. < 1e-05 s⁻¹
